Where do these numbers come from? They come from paper PMC2680598.

- EXPERIMENTAL TARGET: UniProt:P9WNG3
- Sequence (P9WNG3 2-335): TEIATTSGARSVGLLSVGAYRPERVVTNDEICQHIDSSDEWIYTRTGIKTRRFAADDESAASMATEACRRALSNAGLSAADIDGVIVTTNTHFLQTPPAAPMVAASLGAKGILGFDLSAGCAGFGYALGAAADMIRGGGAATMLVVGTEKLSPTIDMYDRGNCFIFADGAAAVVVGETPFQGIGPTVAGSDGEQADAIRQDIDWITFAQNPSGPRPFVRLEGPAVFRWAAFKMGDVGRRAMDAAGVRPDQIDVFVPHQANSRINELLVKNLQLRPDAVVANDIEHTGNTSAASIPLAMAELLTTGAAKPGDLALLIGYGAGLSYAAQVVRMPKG
- METHOD DESCRIPTION: mtFabH inhibition assay
- Format: biochemical
OBSERVATION TYPE: inhibition of mtFabH (in words)

{"columns": ["COMPOUND", "OBSERVED MEASUREMENT"],
 "data": [
  ["Cc1sc(NC(=O)CBr)nc1C(=O)O [Compound 16]", "failed to inhibit"],
  ["COC(=O)c1nc(NC(=O)CBr)sc1-c1ccccc1 [Compound 14]", "active against mtFabH"],
  ["O=C(CBr)Nc1nc(C(=O)O)c(-c2ccccc2)s1 [Compound 17]", "failed to inhibit"],
  ["COC(=O)c1nc(NC(=O)CBr)sc1-c1cccc(Cl)c1 [Compound 3]", "active against mtFabH"]
]}
